# System: HCC-2998 colon
# experimentDescription: NCI tumour cell line growth inhibition, 48 h
So I've got a bunch of molecules here, and I need their TGI values.

Query c1cc(-c2cn3c(n2)SCC3)ccn1 yields TGI of > 100 µM

Query O=c1[nH]c2nc3ccccc3c(=O)n2/c1=C/c1ccco1 yields TGI of > 100 µM

Query CCN1C(=O)N(CC)C2C1NN=c1s/c(=C\c3ccc(F)cc3)c(=O)n12 (centres undefined) yields TGI of > 100 µM

Query COC(=O)c1cc(-c2ccc(OC)c(OC)c2)[nH]c1N/N=C/c1c(Cl)cccc1Cl yields TGI of 1.43 µM

Query CCCCCCCCCCCC[N+](CCCCCCCCCCCC)=C1SCCS1 yields TGI of 22.4 µM

Query CC(C)(C)OC(=O)NCCCCC(N)NC(=O)c1ccccc1 (centres undefined) yields TGI of > 100 µM

Query CC(=O)O[C@@H]1C[C@@]2(C)[C@@H]3CC=C4[C@@H](C[C@H](O)C(=O)C4(C)C)[C@]3(C)C(=O)C[C@]2(C)[C@H]1[C@@](C)(O)C(=O)/C=C/C(C)(C)OC(C)=O yields TGI of 16.5 µM

Query CSc1c(C#N)c(N)n(-c2ccc(Cl)cc2)c(=O)c1C#N yields TGI of > 100 µM

Query c1ccc(CC2COC(c3cccs3)=N2)cc1 (centres undefined) yields TGI of > 100 µM

###

# Test system: SF-539 CNS
# experimentDescription: NCI tumour cell line growth inhibition, 48 h
So I've got a bunch of compounds here, and I need their TGI values.

Query CCOC(=O)Cn1nnc2ccc(Nc3nc4ccccc4nc3-c3ccccc3)cc21 yields TGI of > 100 µM

Query O=C(O)CCNS(=O)(=O)c1ccc([N+](=O)[O-])cc1 yields TGI of > 100 µM

Query O=NN(CCF)C(=O)NC1CCSCC1 yields TGI of > 100 µM

Query COc1ccc2c(-c3ccnc(Nc4cccc(OC(F)(F)F)c4)n3)cnn2n1 yields TGI of 3.52 µM

Query COC(=O)C(Cc1c[nH]c2ccccc12)N=C1Nc2ccncc2S(=O)(=O)N1c1cccc(OC(C)C)c1 (stereo unspecified) yields TGI of > 100 µM

Query Cc1cc(NS(=O)(=O)c2ccc(NC(=O)c3cccc4c(Nc5ccc(S(N)(=O)=O)cc5)c5ccccc5nc34)cc2)no1 yields TGI of > 100 µM

Query CN(CCCNC(=O)c1cc(-c2ccccc2)nc2ccccc12)CCCNC(=O)c1cc(-c2ccccc2)nc2ccccc12 yields TGI of 4.67 µM

Query COc1ccc(-c2[nH]c3ccccc3c2CCNS(=O)(=O)c2ccc(C)cc2)cc1 yields TGI of > 10 µM

Query OC(c1cccnc1Cl)c1nc2ccccc2c2ccnc(Cl)c12 (stereo unspecified) yields TGI of 12.4 µM

Query CCCCNc1nc(NC2OCC(OC(C)=O)C(OC(C)=O)C2OC(C)=O)c(N=O)c(=O)n1C (stereo unspecified) yields TGI of > 10 µM

Query O=C(O)c1cc(CCc2cc(O)ccc2O)ccc1O yields TGI of > 100 µM

Query N#CCN1C(=O)c2cc([N+](=O)[O-])cc3cc([N+](=O)[O-])cc(c23)C1=O yields TGI of 31.8 µM

Query O=C(O)c1ccccc1NC(=S)c1ccccc1 yields TGI of > 100 µM

Query COc1ccc(CNc2cc(=O)n(C)c(=O)[nH]2)cc1 yields TGI of > 100 µM

Query COC(=O)C(C(=O)C(=O)Nc1ccc([N+](=O)[O-])cc1)c1nc2ccc([N+](=O)[O-])cc2[nH]c1=O (stereo unspecified) yields TGI of > 100 µM

Query COc1ccc(-c2cc(=O)c3c(O)cccc3o2)c(OC)c1OC yields TGI of 86.9 µM

Query CC(C)(C)c1cc2nc(c1)C(C(F)(F)F)(C(F)(F)F)OB(Br)OC2(C(F)(F)F)C(F)(F)F yields TGI of 7.31 µM

Query C=C1CC[C@@H](C)[C@](C)(CCc2ccoc2)C/C=C\C=C/1C(=O)O yields TGI of 42.6 µM

Query CC(C)C[C@H](NC(=O)CCn1ccc2ccccc2c1=O)B(O)O yields TGI of 5.62 µM

Query O=c1[nH]c(Nc2nc3ccccc3[nH]2)nc(O)c1Cc1ccccc1 yields TGI of > 100 µM

Query N#C/C(C(=S)NCc1ccccc1)=C(/N)N1CCCC1 yields TGI of > 100 µM
